# assay.comment: MMV: MTT Cytotoxicity Assay Day 3 pi, U87-CD4-CCR5 cells, % cell death @ 5mM compound
# Type: toxicity, cell-based
# test.parameters: human, u87-cd4-ccr5, 5000 µM
metric.name: % Cell Death
The answer should be written as a number, with no unit following it.

- compound: "CCOC(=O)c1cn(CC)c2cc(N3CCCCC3)c(F)cc2c1=O"
  % Cell Death: 106

Task: Dear colleague, I am looking for the recorded % Cell Death of the following compound: CCN(Cc1ccccc1)C1CCN(Cc2cc(Br)ccc2O)CC1.O=C(O)C(=O)O
Output: -5

Task: Dear colleague, I am looking for the recorded % Cell Death of the following compound: Cc1cc(N2CCN(C3CCCC3)CC2)n2c(nc3ccccc32)c1C#N
Output: 35

Task: Dear colleague, I am looking for the recorded % Cell Death of the following compound: CN(C)c1ccc(N=Cc2ccc(N3CCOCC3)cc2)cc1
Output: 108

Task: Dear colleague, I am looking for the recorded % Cell Death of the following compound: O=C(Nc1ccc(Cl)cc1)N1CCN(c2ccc3nncn3n2)CC1
Output: 108

Task: Dear colleague, I am looking for the recorded % Cell Death of the following compound: COc1cccc(Cn2c(Oc3ccccc3)nc3c2c(=O)n(C)c(=O)n3C)c1
Output: -1

Task: Dear colleague, I am looking for the recorded % Cell Death of the following compound: Cc1ccc(N2C(=O)C3C(C2=O)C2(c4ccccc4)C(=O)C3(c3ccccc3)C(c3ccccc3)=C2c2ccccc2)cc1 (stereo not given)
Output: -31

Task: Dear colleague, I am looking for the recorded % Cell Death of the following compound: CCc1ccc(Nc2cc(C)nc3nc(C)nn23)cc1
Output: 23

Task: Dear colleague, I am looking for the recorded % Cell Death of the following compound: O=C(NC(c1ccccc1)c1ccc2cccnc2c1O)c1ccccc1 (stereo not given)
Output: -19

Task: Dear colleague, I am looking for the recorded % Cell Death of the following compound: COc1ccc(C(C)=O)cc1N1C(=O)C2C(C1=O)C1(c3ccccc3)C(=O)C2(c2ccccc2)C(c2ccc(C)cc2)=C1c1ccc(C)cc1 (stereo not given)
Output: 28

Task: Dear colleague, I am looking for the recorded % Cell Death of the following compound: C=C(C)CCC(C)N1CCC(N2CCC(C(=O)NCCc3ccccc3)CC2)CC1 (stereo not given)
Output: -11

Task: Dear colleague, I am looking for the recorded % Cell Death of the following compound: Nc1nc(Nc2cccc(F)c2)nc2ccccc12
Output: 42

Task: Dear colleague, I am looking for the recorded % Cell Death of the following compound: CN1C=C(c2ccc3ccccc3n2)C(c2c[nH]c3ccccc23)c2ccccc21 (stereo not given)
Output: 94

Task: Dear colleague, I am looking for the recorded % Cell Death of the following compound: CCOc1cc(Cl)c(C(C)NC(=O)c2cccc(OC)c2)cc1OCC (stereo not given)
Output: -1

Task: Dear colleague, I am looking for the recorded % Cell Death of the following compound: Cc1ccccc1OCCSc1nc2ccc(NC(=O)c3ccccc3)cc2s1
Output: 96
